Tested on: L1210 leukemia ip in BDF1 mice, survival T/C
Test: NCI In Vivo Anticancer Drug Screen. Data for tumor model L1210 Leukemia (intraperitoneal) in B6D2F1 (BDF1) mice
Details: endpoint: mean survival time; dose: 200.0 mg/kg/injection; schedule: Q04DX002 (ip); vehicle: gum acacia; higher = longer survival
Toxic doses and inconclusive results are not listed.
quantity name: T/C

Please state recorded T/C (tested on L1210 leukemia ip in BDF1 mice, survival T/C) of CC(C(=O)O)(c1ccccc1)c1ccccc1
96 % of control

###

Below is a list of entries, each paired with its recorded T/C value.
Tested on: L1210 leukemia ip in BDF1 mice, survival T/C
Assay: NCI In Vivo Anticancer Drug Screen. Data for tumor model L1210 Leukemia (intraperitoneal) in B6D2F1 (BDF1) mice
Conditions: endpoint: mean survival time; dose: 400.0 mg/kg/injection; schedule: Q01DX009 (ip); vehicle: saline with Tween-80; higher = longer survival
Toxic doses and inconclusive results are not listed.

[
  {
    "compound": "Cc1cc(Cl)cc(C)c1OC(=O)Nc1cccc(C(F)(F)F)c1",
    "T/C": "101 % of control"
  },
  {
    "compound": "C(=NCC1CCC(CN=Cc2ccco2)CC1)c1ccco1 (stereo unspecified)",
    "T/C": "100 % of control"
  }
]

Notebook: pull reported T/C for L1210 leukemia ip in BDF1 mice, survival T/C, entry OCCOc1ccc(Cl)cc1
102 % of control

Short answer please: T/C, L1210 leukemia ip in BDF1 mice, survival T/C, entry O=C(Nc1cccc(O)c1)Oc1cccc(Cl)c1
106 % of control

Query T/C on L1210 leukemia ip in BDF1 mice, survival T/C for CCOC(=O)CN=CC1CCC=CO1 (stereo unspecified)
108 % of control

Lab note: need T/C with L1210 leukemia ip in BDF1 mice, survival T/C for entry O=C(Nc1ccc(Cl)cc1C(F)(F)F)OCCOc1ccccc1Cl , please look it up.
93 % of control

Test system L1210 leukemia ip in BDF1 mice, survival T/C; read-out T/C; what value for NC(N)=NC1=NC(=O)CS1 ?
103 % of control

Request: T/C, test system L1210 leukemia ip in BDF1 mice, survival T/C, entry COC(=O)C(C)CC(C)(C)[N+](=O)[O-] (stereo unspecified)
97 % of control
